Molecular target: Bcl-2 protein (Recombinant Human Bcl-2 Protein) (Homo sapiens)
Construct: purchased Novus NBP2-34889
Sequence (P10415 whole entry): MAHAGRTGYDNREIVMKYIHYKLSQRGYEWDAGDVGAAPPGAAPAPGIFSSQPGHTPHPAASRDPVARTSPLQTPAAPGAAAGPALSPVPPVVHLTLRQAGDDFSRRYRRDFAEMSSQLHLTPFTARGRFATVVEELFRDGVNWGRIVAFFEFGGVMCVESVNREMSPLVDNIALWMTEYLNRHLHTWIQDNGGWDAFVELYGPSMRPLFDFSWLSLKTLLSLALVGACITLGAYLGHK
Experiment: Binding evaluation of mixture library compounds to Bcl-2 using AS-MS (affinity selection mass spectrometry)
Conditions: AS-MS, mixture of 1200 compounds, Bcl-2; ASMS Ratio(%)=(A−C)/B×100; replicate n = 2
Below, each entry is listed with its recorded ASMS ratio (%) n = 2.

{"columns": ["MOLECULE SMILES", "TESTED ON", "ASMS ratio (%) n = 2"],
 "data": [
  ["CCOc1cncc(-c2ccc(C(=O)N3CCN(c4ccc(C(=O)NCC(F)(F)F)nn4)CC3)c3ccccc23)c1", "Bcl-2 protein (Recombinant Human Bcl-2 Protein) (Homo sapiens)", 0.0],
  ["CCOc1cncc(-c2ccccc2CN2CCN(c3ccc(C(=O)NCC45CC6CC(CC(C6)C4)C5)nn3)CC2)c1", "Bcl-2 protein (Recombinant Human Bcl-2 Protein) (Homo sapiens)", "−0.2"],
  ["CCOc1cccc(-c2cc(CN3CCN(c4ccc(C(=O)NCC(F)(F)F)nn4)CC3)cc(OCC)c2)c1", "Bcl-2 protein (Recombinant Human Bcl-2 Protein) (Homo sapiens)", "−0.4"],
  ["CCOc1cncc(-c2ccc(CN3CCN(c4ccc(C(=O)NCC(F)(F)F)nn4)CC3)c(OC)c2)c1", "Bcl-2 protein (Recombinant Human Bcl-2 Protein) (Homo sapiens)", 0.0],
  ["CCOc1cncc(-c2ccccc2CCC(=O)N2CCN(c3ccc(C(=O)NCC(F)(F)F)nn3)CC2)c1", "Bcl-2 protein (Recombinant Human Bcl-2 Protein) (Homo sapiens)", "−0.4"],
  ["CCCNC(=O)c1ccc(N2CCN(Cc3ccc(-c4cncc(OCC)c4)cc3CC)CC2)nn1", "Bcl-2 protein (Recombinant Human Bcl-2 Protein) (Homo sapiens)", 1.5],
  ["CCOc1cncc(-c2cc(CN3CCN(c4ccc(C(=O)NCC56CC7CC(CC(C7)C5)C6)nn4)CC3)cc(OC(C)C)c2)c1", "Bcl-2 protein (Recombinant Human Bcl-2 Protein) (Homo sapiens)", "−2.7"]
]}
